Data provenance: patent US6197982A

Would you mind telling me the reported MLR rel. (ratio between the IC50 value of 1,25(OH)2 D3 and the IC50 value of the compound) of each entry?
- System: mouse spleen lymphocytes
- Method: mixed lymphocyte reaction (MLR), 3H-thymidine incorporation
- Type: cell-based, mouse (BALB/c and CB6F1)
- Study conditions: relative to 1,25(OH)2 D3; 72 hours; >1 = more active
// return a plain number; no unit text

Req: Fill in the blank: the reported MLR rel. (ratio between the IC50 value of 1,25(OH)2 D3 and the IC50 value of the compound) of C=C1/C(=C\C=C2/CCC[C@]3(C)[C@@H]([C@@H](C)C(C#CC(O)(CC)CC)OCC)CC[C@@H]23)C[C@@H](O)C[C@@H]1O (stereo partly drawn) is ____.
Resp: 36

Req: Fill in the blank: the reported MLR rel. (ratio between the IC50 value of 1,25(OH)2 D3 and the IC50 value of the compound) of C=C1/C(=C\C=C2/CCC[C@]3(C)[C@@H]([C@@H](C)C(C#CC(O)(CC)CC)OC)CC[C@@H]23)C[C@@H](O)C[C@@H]1O (stereo partly drawn) is ____.
Resp: 150

Req: Fill in the blank: the reported MLR rel. (ratio between the IC50 value of 1,25(OH)2 D3 and the IC50 value of the compound) of C=C1/C(=C\C=C2/CCC[C@]3(C)[C@@H]([C@@H](C)CCCC(C)(C)O)CC[C@@H]23)C[C@@H](O)C[C@@H]1O [MC1288, 20-epi-1,25(OH)2 D3] is ____.
Resp: 150

Req: Fill in the blank: the reported MLR rel. (ratio between the IC50 value of 1,25(OH)2 D3 and the IC50 value of the compound) of C=C1/C(=C\C=C2/CCC[C@]3(C)[C@@H]([C@H](C)CCCC(C)(C)O)CC[C@@H]23)C[C@@H](O)C[C@@H]1O [1,25(OH)2 D3, 1α,25-dihydroxy-vitamin D3] is ____.
Resp: 1

Req: Fill in the blank: the reported MLR rel. (ratio between the IC50 value of 1,25(OH)2 D3 and the IC50 value of the compound) of C=C1/C(=C\C=C2/CCC[C@]3(C)[C@@H]([C@@H](C)C(O)C#CC(O)(CC)CC)CC[C@@H]23)C[C@@H](O)C[C@@H]1O (stereo partly drawn) is ____.
Resp: 13

Req: Fill in the blank: the reported MLR rel. (ratio between the IC50 value of 1,25(OH)2 D3 and the IC50 value of the compound) of C=C1/C(=C\C=C2/CCC[C@]3(C)[C@@H]([C@@H](C)C(CCC(C)(C)O)OC)CC[C@@H]23)C[C@@H](O)C[C@@H]1O (single isomer, unassigned) is ____.
Resp: 175

Req: Fill in the blank: the reported MLR rel. (ratio between the IC50 value of 1,25(OH)2 D3 and the IC50 value of the compound) of C=C1/C(=C\C=C2/CCC[C@]3(C)[C@@H]([C@H](C)/C=C/[C@@H](O)C4CC4)CC[C@@H]23)C[C@@H](O)C[C@@H]1O is ____.
Resp: 0.6

Req: Fill in the blank: the reported MLR rel. (ratio between the IC50 value of 1,25(OH)2 D3 and the IC50 value of the compound) of C=C1/C(=C\C=C2/CCC[C@]3(C)[C@@H]([C@@H](C)C(O)CCC(C)(C)O)CC[C@@H]23)C[C@@H](O)C[C@@H]1O (stereo partly drawn) is ____.
Resp: 12

Req: Fill in the blank: the reported MLR rel. (ratio between the IC50 value of 1,25(OH)2 D3 and the IC50 value of the compound) of C=C1/C(=C\C=C2/CCC[C@]3(C)[C@@H]([C@@H](C)C(CCC(C)(C)O)OCC)CC[C@@H]23)C[C@@H](O)C[C@@H]1O (single isomer, unassigned) is ____.
Resp: 161
